Molecular target: UniProtKB P48730
Binarize IC50 at 60 nM; below is class 1, at or above is class 0.

COMPOUND: CC1(C)Cc2[nH]c(-c3ccnc(NC(=O)Cc4ccncc4)c3)c(Nc3ccccc3)c2C(=O)N1
ASSIGNED_LABEL: class 1

Request: API: query returns whether the compound falls strictly under 60 nM in IC50. Query: CCN1CCc2[nH]c(-c3ccnc(NC(=O)C(C)c4ccc(F)cc4)c3)c(Nc3ccccc3)c2C1=O (single isomer, unassigned) [Example 26]
Response: class 1

Request: API: query returns whether the compound falls strictly under 60 nM in IC50. Query: `CN1CCc2[nH]c(-c3ccnc(NC(=O)Cc4ccc(F)cc4)c3)c(Nc3ccccc3)c2C1=O`
Response: class 1

Request: API: query returns whether the compound falls strictly under 60 nM in IC50. Query: Cc1ccccc1Nc1c(-c2ccnc(NC(=O)C(CC(F)F)c3ccc(F)cc3)c2)[nH]c2c1C(=O)NC(C)(C)C2 (single isomer, unassigned; enantiomer 2) [Example 137]
Response: class 0

Request: API: query returns whether the compound falls strictly under 60 nM in IC50. Query: CN1CCc2[nH]c(-c3ccnc(NC(=O)C(CCN4CCOCC4)c4ccccc4)c3)c(Nc3ccccc3)c2C1=O (stereo not drawn)
Response: class 1

----------
Biological target: human CSNK1A1 (Homo sapiens (Human), UniProt P48729)
Sequence (P48729 whole entry): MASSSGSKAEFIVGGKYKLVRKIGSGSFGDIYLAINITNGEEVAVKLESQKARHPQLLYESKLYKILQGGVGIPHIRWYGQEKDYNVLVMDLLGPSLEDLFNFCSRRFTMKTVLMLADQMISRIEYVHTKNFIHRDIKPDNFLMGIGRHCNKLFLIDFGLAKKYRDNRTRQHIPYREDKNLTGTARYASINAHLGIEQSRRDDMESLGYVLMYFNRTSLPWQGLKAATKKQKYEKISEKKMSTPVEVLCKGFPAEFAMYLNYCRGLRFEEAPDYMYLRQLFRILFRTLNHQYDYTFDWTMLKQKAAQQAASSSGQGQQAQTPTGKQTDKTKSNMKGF
Assay: CSNK1A1 High ATP Assay (ADP-Glo, 1 mM ATP)
Format: biochemical
Conditions: read-out: CSNK1A1 high ATP assay IC50 [mol/l] (median)
VALUE_TYPE: IC50 (µM)
Enter your answer as a number in µM; do not include the unit.

Some entries whose results are on file:
COMPOUND: CCC(C(=O)Nc1cc(-c2[nH]c3c(c2Nc2ccccc2)C(=O)N(C)CC3)ccn1)c1ccc(F)cc1 (single isomer, unassigned; (+)) [Example 77]
VAL: 0.0867
//
COMPOUND: CC1Cc2[nH]c(-c3ccnc(NC(=O)Cc4ccc(F)cc4)c3)c(Nc3ccccc3)c2C(=O)N1C (single isomer, unassigned; (-)) [Example 90]
VAL: 0.0624
//
COMPOUND: CC(C(=O)Nc1cc(-c2[nH]c3c(c2Nc2ccccc2)C(=O)N(C)C(C)C3)ccn1)c1ccc(F)cc1 (single isomer, unassigned; (-)) [Example 94]
VAL: 0.154

Request: So what's the measured IC50 for this one? Cc1ccccc1Nc1c(-c2ccnc(NC(=O)C(CC(F)F)c3ccc(F)cc3)c2)[nH]c2c1C(=O)NC(C)(C)C2 (single isomer, unassigned; enantiomer 1) [Example 136]
Response: 0.0456

Request: So what's the measured IC50 for this one? CN1CCc2[nH]c(-c3ccnc(NC(=O)Cc4ccc(F)cc4)c3)c(Nc3ccccc3)c2C1=O [Example 1]
Response: 0.0284

Request: So what's the measured IC50 for this one? CC1(C)Cc2[nH]c(-c3ccnc(NC(=O)C(CC(F)F)c4ccc(S(C)(=O)=O)cc4)c3)c(Nc3ccccc3)c2C(=O)N1 (racemic) [Example 118]
Response: 0.107

----------
Target: human CSNK1A1 (Homo sapiens (Human))
Assay: CSNK1A1 High ATP Assay (ADP-Glo, 1 mM ATP)
Format: biochemical
Details: read-out: CSNK1A1 high ATP assay IC50 [mol/l] (median)
Readings of IC50 for the listed compounds
Enter your answer as a number in nM; do not include the unit.

Some entries whose results are on file:
COMPOUND: Cc1ccccc1Nc1c(-c2ccnc(NC(=O)C(C)c3ccc(F)cc3)c2)[nH]c2c1C(=O)NC(C)(C)C2 (racemic) [Example 132]
IC50 [nM]: 915
--
COMPOUND: CN1CCc2[nH]c(-c3ccnc(NC(=O)Cc4ccc(F)cc4)c3)c(Nc3cccc(F)c3F)c2C1=O
IC50 [nM]: 119
--
COMPOUND: O=C1NC2(CCC2)Cc2[nH]c(-c3ccnc(NC(=O)C(CC(F)F)c4ccc(F)cc4)c3)c(Nc3ccccc3)c21 (racemic) [Example 54]
IC50 [nM]: 14.6

Request: Kindly state the measured IC50 obtained for CN1C(=O)c2c([nH]c(-c3ccnc(NC(=O)C(CC(F)F)c4ccc(F)cc4)c3)c2Nc2ccccc2)CC12CCC2 (single isomer, unassigned; enantiomer 2) [Example 162] with human CSNK1A1 (Homo sapiens (Human)).
Response: 61.4

Request: Kindly state the measured IC50 obtained for O=C1NC2(CCC2)Cc2[nH]c(-c3ccnc(NC(=O)C(CC(F)F)c4ccc(F)cc4)c3)c(Nc3cccc(F)c3Cl)c21 (racemic) [Example 123] with human CSNK1A1 (Homo sapiens (Human)).
Response: 29.1

Request: Kindly state the measured IC50 obtained for CC1Cc2[nH]c(-c3ccnc(NC(=O)C(CC(F)F)c4ccc(F)cc4)c3)c(Nc3ccccc3F)c2C(=O)N1C (single isomer, unassigned; (+)) [Example 108] with human CSNK1A1 (Homo sapiens (Human)).
Response: 8.33

Request: Kindly state the measured IC50 obtained for CCN1CCc2[nH]c(-c3ccnc(NC(=O)C(C)c4ccc(F)cc4)c3)c(Nc3ccccc3)c2C1=O (stereo not shown) [Example 21] with human CSNK1A1 (Homo sapiens (Human)).
Response: 344

Request: Kindly state the measured IC50 obtained for CC(C(=O)Nc1cc(-c2[nH]c3c(c2Nc2ccccc2)C(=O)N(C)CC3)ccn1)c1ccc(F)cc1 (stereo not shown) with human CSNK1A1 (Homo sapiens (Human)).
Response: 115

----------
Readings of pIC50 for the listed compounds
Target: wild-type Epidermal Growth Factor Receptor (EGFR) (Homo sapiens (Human))
Sequence (P00533 669-1210): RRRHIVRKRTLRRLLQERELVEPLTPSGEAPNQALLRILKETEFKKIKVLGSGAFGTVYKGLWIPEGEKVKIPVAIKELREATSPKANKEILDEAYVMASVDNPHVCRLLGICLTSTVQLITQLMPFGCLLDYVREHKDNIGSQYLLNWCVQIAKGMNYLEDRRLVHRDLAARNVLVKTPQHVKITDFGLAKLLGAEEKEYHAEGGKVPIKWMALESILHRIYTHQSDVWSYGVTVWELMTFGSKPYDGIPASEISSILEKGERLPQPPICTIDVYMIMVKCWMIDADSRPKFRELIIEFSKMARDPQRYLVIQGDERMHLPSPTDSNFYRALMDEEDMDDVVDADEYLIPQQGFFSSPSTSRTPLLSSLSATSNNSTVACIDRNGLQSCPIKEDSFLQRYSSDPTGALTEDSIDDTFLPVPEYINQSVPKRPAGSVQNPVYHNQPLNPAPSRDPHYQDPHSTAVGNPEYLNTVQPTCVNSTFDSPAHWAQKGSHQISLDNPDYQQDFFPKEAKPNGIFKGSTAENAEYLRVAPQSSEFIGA
Assay: WT-EGFR Kinase Assay (TR-FRET, 2 mM ATP)
Assay type: biochemical
Conditions: read-out: EGFR Wildtyp- 2 mM ATP IC50 [mol/l] (median)
Remember, pIC50 is on a log scale: it is -log10 of the molar concentration.

SMILES_INPUT: CN1CCc2[nH]c(-c3ccnc(NC(=O)Cc4ccccc4)c3)c(Nc3ccccc3)c2C1=O
SYSTEM_TESTED: wild-type Epidermal Growth Factor Receptor (EGFR) (Homo sapiens (Human))
pIC50: 5.93

SMILES_INPUT: CN1CCc2[nH]c(-c3ccnc(NC(=O)Cc4ccc(C(=O)N5CCNCC5)cc4)c3)c(Nc3ccccc3)c2C1=O
SYSTEM_TESTED: wild-type Epidermal Growth Factor Receptor (EGFR) (Homo sapiens (Human))
pIC50: 6.54

Turning now to a further compound:
Request: So what's the measured pIC50 for this one? `CC1(C)Cc2[nH]c(-c3ccnc(NC(=O)Cc4ccc(F)cc4)c3)c(Nc3cccc(F)c3Cl)c2C(=O)N1`
Response: 5.46

----------
Target: UniProt:P48729
Experiment: CSNK1A1 High ATP Assay (ADP-Glo, 1 mM ATP)
Format: biochemical
Settings: read-out: CSNK1A1 high ATP assay IC50 [mol/l] (median)
Readings of pIC50 for the listed molecules
Remember, pIC50 is on a log scale: it is -log10 of the molar concentration.

MOLECULE: CN1CCc2[nH]c(-c3ccnc(NC(=O)C(CCN4CCOCC4)c4ccccc4)c3)c(Nc3ccccc3)c2C1=O (single isomer, unassigned) [Example 31]
VALUE_TYPE: pIC50
VAL: 6.60

Request: So what's the measured pIC50 for this one? CN1CCc2[nH]c(-c3ccnc(NC(=O)C(CO)c4ccc(F)cc4)c3)c(Nc3ccccc3)c2C1=O (centres unmarked) [Example 17]
Response: 7.18

Request: So what's the measured pIC50 for this one? CCC(C(=O)Nc1cc(-c2[nH]c3c(c2Nc2ccccc2)C(=O)N(C)CC3)ccn1)c1ccc(F)cc1 (single isomer, unassigned; (-)) [Example 76]
Response: 6.30

Request: So what's the measured pIC50 for this one? CN1CCc2[nH]c(-c3ccnc(NC(=O)C(CC(F)F)c4ccc(F)cc4)c3)c(Nc3ccccc3)c2C1=O (single isomer, unassigned; (-)) [Example 62]
Response: 5.82

Request: So what's the measured pIC50 for this one? O=C1NC2(CCC2)Cc2[nH]c(-c3ccnc(NC(=O)C(CC(F)F)c4ccc(F)cc4)c3)c(Nc3ccccc3)c21 (single isomer, unassigned; (+)) [Example 55]
Response: 8.04

Request: So what's the measured pIC50 for this one? CC1Cc2[nH]c(-c3ccnc(NC(=O)Cc4ccc(F)cc4)c3)c(Nc3ccccc3)c2C(=O)N1C (single isomer, unassigned; (+)) [Example 89]
Response: 6.44

Request: So what's the measured pIC50 for this one? CC(C(=O)Nc1cc(-c2[nH]c3c(c2Nc2ccccc2)C(=O)NCC3)ccn1)c1ccc(F)cc1 (single isomer, unassigned) [Example 10]
Response: 7.59

----------
Biological target: human CSNK1D (Homo sapiens (Human))
Sequence (P48730 whole entry): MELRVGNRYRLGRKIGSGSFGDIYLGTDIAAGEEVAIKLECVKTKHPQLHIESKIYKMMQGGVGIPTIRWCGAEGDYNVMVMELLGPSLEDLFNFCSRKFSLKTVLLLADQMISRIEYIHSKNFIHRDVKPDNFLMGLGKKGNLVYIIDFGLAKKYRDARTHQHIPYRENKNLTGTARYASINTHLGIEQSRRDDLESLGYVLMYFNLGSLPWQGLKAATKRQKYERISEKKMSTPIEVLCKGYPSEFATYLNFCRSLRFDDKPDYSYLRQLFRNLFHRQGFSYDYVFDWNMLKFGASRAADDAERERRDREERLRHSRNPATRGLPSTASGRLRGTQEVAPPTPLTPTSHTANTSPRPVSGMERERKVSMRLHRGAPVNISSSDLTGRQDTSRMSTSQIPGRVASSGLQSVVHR
Binarize IC50 at 20 nM; below is YES, at or above is NO.

Known results for molecules:
MOLECULE: CC(C(=O)Nc1cc(-c2[nH]c3c(c2Nc2ccccc2F)C(=O)N(C)CC3)ccn1)c1ccc(F)cc1 (single isomer, unassigned) [Example 42]
SYSTEM_TESTED: human CSNK1D (Homo sapiens (Human))
ASSIGNED_LABEL: YES
//
MOLECULE: O=C1NC2(CCC2)Cc2[nH]c(-c3ccnc(NC(=O)C(CC(F)F)c4ccc(F)cc4)c3)c(Nc3ccccc3)c21 (single isomer, unassigned; (+)) [Example 55]
SYSTEM_TESTED: human CSNK1D (Homo sapiens (Human))
ASSIGNED_LABEL: YES
//
MOLECULE: CN1CCc2[nH]c(-c3ccnc(NC(=O)Cc4ccc(C(=O)N5CCNCC5)cc4)c3)c(Nc3ccccc3)c2C1=O [Example 153]
SYSTEM_TESTED: human CSNK1D (Homo sapiens (Human))
ASSIGNED_LABEL: YES
//
MOLECULE: CN1CCc2[nH]c(-c3ccnc(NC(=O)C(CO)c4ccc(F)cc4)c3)c(Nc3ccccc3)c2C1=O (single isomer, unassigned) [Example 18]
SYSTEM_TESTED: human CSNK1D (Homo sapiens (Human))
ASSIGNED_LABEL: NO
//
MOLECULE: O=C(Cc1ccc(F)cc1)Nc1cc(-c2[nH]c3c(c2Nc2ccccc2)C(=O)N(CC2CC2)CC3)ccn1 [Example 20]
SYSTEM_TESTED: human CSNK1D (Homo sapiens (Human))
ASSIGNED_LABEL: NO

Request: API: query returns whether the molecule falls strictly under 20 nM in IC50. Query: CC(C(=O)Nc1cc(-c2[nH]c3c(c2Nc2ccccc2)C(=O)N(C)C(C)C3)ccn1)c1ccc(F)cc1 (single isomer, unassigned; (-)) [Example 95]
Response: NO

Request: API: query returns whether the molecule falls strictly under 20 nM in IC50. Query: O=C1NC2(CCC2)Cc2[nH]c(-c3ccnc(NC(=O)C(CC(F)F)c4ccc(F)cc4)c3)c(Nc3cccc(F)c3Cl)c21 (single isomer, unassigned; enantiomer 2) [Example 125]
Response: YES

Request: API: query returns whether the molecule falls strictly under 20 nM in IC50. Query: CC1(C)Cc2[nH]c(-c3ccnc(NC(=O)C(CNC(=O)OC(C)(C)C)c4ccc(F)cc4)c3)c(Nc3ccccc3)c2C(=O)N1 (racemic) [Example 138]
Response: NO
